- test_summary: Human plasma protein binding (equilibrium dialysis)
- Assay type: in vitro ADME
- conditions_used: dialysis 18 hours
Returns one of label 1 or label 0; label 1 when Human plasma protein binding (% free) is >= 2 % free.

# count of solved cases: 5
given_smiles=C[C@@H]1Cc2c([nH]c3ccccc23)[C@@H](c2cccc(OCCNCCCF)c2C#N)N1CC(F)(F)F category_label="label 1"
given_smiles=Cc1c(OCCNCCCF)ccc(F)c1[C@@H]1c2[nH]c3ccccc3c2CC(C)(C)N1C[C@H](C)C(=O)O category_label="label 1"
given_smiles=COc1ccc(OC[C@@H](C)NCCCF)cc1[C@@H]1c2[nH]c3ccccc3c2C[C@@H](C)N1CC(F)(F)CO category_label="label 1"
given_smiles=COCc1ccc(OCCNCCCF)cc1[C@@H]1c2[nH]c3ccccc3c2C[C@@H](C)N1CC(F)(F)F category_label="label 0"
given_smiles=C[C@@H]1Cc2c([nH]c3ccccc23)[C@@H](c2cc(F)cc(OCCNCCCF)c2F)N1CC(F)(F)F category_label="label 0"

Now for a further compound.
Is reported Human plasma protein binding (% free) greater than or equal to 2 % free here: `C[C@@H]1Cc2c([nH]c3ccccc23)[C@@H](c2cncc(OCCNCCCF)c2)N1CC(F)(F)F` label 1

----------
- test_summary: Human plasma protein binding (equilibrium dialysis)
- Assay type: in vitro ADME
- conditions_used: dialysis 18 hours
metric_name: Human plasma protein binding (% free)
Dear colleague, please return just the value in % free, with no unit written.

Worked examples follow.
given_smiles=Cc1c(OCCNCCCF)ccc(F)c1[C@@H]1c2[nH]c3ccccc3c2C[C@@H](C)N1CCC#N metric_name="Human plasma protein binding (% free)" obs_value=1.6
given_smiles=COc1ccc(NCCNCCCF)nc1[C@@H]1c2[nH]c3ccccc3c2C[C@@H](C)N1CC(F)(F)F metric_name="Human plasma protein binding (% free)" obs_value=2.8
given_smiles=C[C@@H]1Cc2c([nH]c3ccccc23)[C@@H](c2c(F)cnc(OCCNCCCF)c2Cl)N1CC(F)(F)CO metric_name="Human plasma protein binding (% free)" obs_value=1.4

Now for another entry.
Entry `COc1ccc(OCCNCCCF)cc1[C@@H]1c2[nH]c3ccccc3c2C[C@@H](C)N1C[C@H](C)C(=O)O` needs its Human plasma protein binding (% free) filled in; supply it. 80

----------
- test_summary: Human plasma protein binding (equilibrium dialysis)
- Format: in vitro ADME
- conditions_used: dialysis 18 hours
metric_name: Human plasma protein binding (% free)
Dear colleague, please return just the value in % free, with no unit written.

given_smiles=C[C@@H]1Cc2c([nH]c3ccccc23)[C@@H](c2c(F)ccc(OCCNCCCF)c2Cl)N1CC(C)(C)C(=O)O metric_name="Human plasma protein binding (% free)" obs_value=32

Entry `C[C@@H]1Cc2c([nH]c3ccccc23)[C@@H](c2cc(OCCNCCCF)ccc2C#N)N1CC(F)(F)F` needs its Human plasma protein binding (% free) filled in; supply it. 3.7

Entry `CCc1ccc(OCCNCCCF)cc1[C@@H]1c2[nH]c3ccccc3c2C[C@@H](C)N1CC(F)(F)F` needs its Human plasma protein binding (% free) filled in; supply it. 0.10

Entry `COc1ccc(OCCNCCCF)c(F)c1[C@@H]1c2[nH]c3ccccc3c2C[C@@H](C)N1CC(F)F` needs its Human plasma protein binding (% free) filled in; supply it. 1.9

Entry `Cc1c([C@@H]2c3[nH]c4ccccc4c3C[C@@H](C)N2CC(F)(F)F)ccnc1OCCNCCCF` needs its Human plasma protein binding (% free) filled in; supply it. 0.34

Entry `Cc1c(OCCN(C)CCCF)ccc(F)c1[C@@H]1c2[nH]c3ccccc3c2C[C@@H](C)N1CCC(=O)O` needs its Human plasma protein binding (% free) filled in; supply it. 49
